Source: paper PMC5909127

For each entry below, report its IC50 value.
- TESTED_TARGET: BRD4 BD1 L/V (Homo sapiens, UniProt O60885, L94V)
- TEST: competitive AlphaLISA
- Type: binding
- CONDITION: pIC50 BRD4 BD1 L/V, separated enantiomers test; total compound concentration
Give bare numbers, in nM.

Hey, quick one: what's IC50 for each of these?
1. COC(=O)[C@H](C)[C@@H]1N=C(c2ccc(Cl)cc2)c2ccc(OC)cc2-n2c(C)nnc21 [(2R,3S)-7]
2. COC(=O)[C@H](C)[C@@H]1N=C(c2ccc(Cl)cc2)c2ccc(OC)cc2-n2c(C)nnc21 (racemic) [Compound 7]
3. CC[C@@H](C(=O)OC)[C@@H]1N=C(c2ccc(Cl)cc2)c2ccc(OC)cc2-n2c(C)nnc21 (relative stereo) [(2R,3S)-8]
4. CC[C@@H](C(=O)OC)[C@@H]1N=C(c2ccc(Cl)cc2)c2ccc(OC)cc2-n2c(C)nnc21 (racemic) [Compound 8]

Out:
1: 158; 2: 631; 3: 1260; 4: 2000

* * *

- TESTED_TARGET: BRD2 BD1 WT (Homo sapiens)
- Sequence (P25440 71-176): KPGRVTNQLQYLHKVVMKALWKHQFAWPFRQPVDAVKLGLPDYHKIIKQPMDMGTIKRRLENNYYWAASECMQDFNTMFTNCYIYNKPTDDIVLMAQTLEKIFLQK
- TEST: ITC
- Type: binding
MEASURED_PARAMETER: Kd (µM)
Numbers only, in µM.

[[record]]
molecule = "COC(=O)[C@H](C)[C@@H]1N=C(c2ccc(Cl)cc2)c2ccc(OC)cc2-n2c(C)nnc21 [(2R,3S)-7]"
measured_parameter = "Kd"
value = 43

[[record]]
molecule = "C=CC[C@@H](C(=O)OC)[C@@H]1N=C(c2ccc(Cl)cc2)c2cc(OC)ccc2-n2c(C)nnc21 (racemic) [Compound 5]"
measured_parameter = "Kd"
value = 8.4


Next molecule, Kd to be filled in.
Short answer for COC(=O)[C@H](C)[C@@H]1N=C(c2ccc(Cl)cc2)c2ccc(OC)cc2-n2c(C)nnc21 (racemic) [Compound 7] : Kd was 32

* * *

- TESTED_TARGET: BRD3 BD1 L/V (Homo sapiens, UniProt Q15059, L70V)
- Sequence (Q15059 24-144 L70V limits assumed): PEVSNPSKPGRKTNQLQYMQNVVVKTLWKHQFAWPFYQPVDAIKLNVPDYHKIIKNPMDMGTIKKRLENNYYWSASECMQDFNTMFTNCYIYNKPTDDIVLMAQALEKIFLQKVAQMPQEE
- TEST: ITC
- Format: binding
- CONDITION: ITC
MEASURED_PARAMETER: ΔH BRD3 BD1 L/V (kcal/mol)
Give bare numbers, in kcal/mol.

Completed entries (count: 2):
[[record]]
compound = "CCNC(=O)[C@H](CC)[C@@H]1N=C(c2ccc(Cl)cc2)c2cc(OC)ccc2-n2c(C)nnc21 (relative stereo) [Compound 17]"
value = -9.4

[[record]]
compound = "CCNC(=O)[C@H](C)[C@@H]1N=C(c2ccc(Cl)cc2)c2ccc(OC)cc2-n2c(C)nnc21 (relative stereo) [Compound 21]"
value = -10.7


Please look at the items below and tell me ΔH BRD3 BD1 L/V for each one, in order.
1. CC[C@@H](C(=O)OC)[C@@H]1N=C(c2ccc(Cl)cc2)c2cc(OC)ccc2-n2c(C)nnc21 (relative stereo) [Compound 4]
2. CCNC(=O)[C@H](C)[C@@H]1N=C(c2ccc(Cl)cc2)c2cc(OC)ccc2-n2c(C)nnc21 (relative stereo) [Compound 16]
3. C=CC[C@@H](C(=O)OC)[C@@H]1N=C(c2ccc(Cl)cc2)c2cc(OC)ccc2-n2c(C)nnc21 (racemic) [Compound 5]

Out:
-14.1
-19.0
-11.3

* * *

Give measured Kd for each item. Keep answers brief.
- TESTED_TARGET: BRD4 BD1 L/V (Homo sapiens, UniProt O60885, L94V)
- TEST: ITC
- Assay type: binding
- CONDITION: Kd BRD4 BD1 L/V, ITC, 30°C
Give bare numbers, in µM.

[[record]]
compound = "C=CC[C@@H](C(=O)OC)[C@@H]1N=C(c2ccc(Cl)cc2)c2cc(OC)ccc2-n2c(C)nnc21 (racemic)"
measured_parameter = "Kd"
measure_unit = "µM"
value = 0.18


Batch request: Kd for each of the following compounds.
1. COC(=O)[C@H](C)[C@@H]1N=C(c2ccc(Cl)cc2)c2ccc(OC)cc2-n2c(C)nnc21 (racemic)
2. CC[C@@H](C(=O)OC)[C@@H]1N=C(c2ccc(Cl)cc2)c2cc(OC)ccc2-n2c(C)nnc21 (relative stereo)
3. CCNC(=O)[C@H](C)[C@@H]1N=C(c2ccc(Cl)cc2)c2ccc(OC)cc2-n2c(C)nnc21 (relative stereo)
4. CC[C@@H](C(=O)OC)[C@@H]1N=C(c2ccc(Cl)cc2)c2ccc(OC)cc2-n2c(C)nnc21 (racemic)

Out:
0.14
0.16
0.37
0.53

* * *

I'd appreciate it if you could supply IC50 values for the items below.
- TESTED_TARGET: BRD4 BD1 WT (Homo sapiens)
- TEST: competitive AlphaLISA
- Assay type: binding
- CONDITION: pIC50 BRD4 BD1 WT, separated enantiomers test; total compound concentration
One number for each entry, in µM.

Take a look at these entries with their results.
[[record]]
compound = "CC[C@@H](C(=O)OC)[C@@H]1N=C(c2ccc(Cl)cc2)c2ccc(OC)cc2-n2c(C)nnc21 (relative stereo) [(2R,3S)-8]"
measure_unit = "µM"
value = 79.4

[[record]]
compound = "COC(=O)[C@H](C)[C@@H]1N=C(c2ccc(Cl)cc2)c2ccc(OC)cc2-n2c(C)nnc21 (racemic) [Compound 7]"
measure_unit = "µM"
value = 12.6


Respectfully, I request IC50 for each entry included below.
1. COC(=O)[C@H](C)[C@@H]1N=C(c2ccc(Cl)cc2)c2ccc(OC)cc2-n2c(C)nnc21 [(2R,3S)-7]
2. CC[C@@H](C(=O)OC)[C@@H]1N=C(c2ccc(Cl)cc2)c2ccc(OC)cc2-n2c(C)nnc21 (racemic) [Compound 8]

Out:
[7.94, 50.1]

* * *

- TESTED_TARGET: BRD2 BD1 L/V (Homo sapiens, UniProt P25440, L110V)
- Sequence (P25440 71-176 L110V limits assumed): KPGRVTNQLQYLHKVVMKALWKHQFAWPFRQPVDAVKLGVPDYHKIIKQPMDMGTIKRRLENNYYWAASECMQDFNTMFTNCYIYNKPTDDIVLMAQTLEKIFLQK
- TEST: ITC
- Format: binding
- CONDITION: ITC, 30°C; read-out: Kd BRD2 BD1 L/V
Could you please report measured pKd for the items listed next?
Answers are plain numbers, as −log10 of the molar value.

[[record]]
molecule = "CCNC(=O)[C@H](C)[C@@H]1N=C(c2ccc(Cl)cc2)c2cc(OC)ccc2-n2c(C)nnc21 (relative stereo)"
value = 6.92


Please examine the following record next.
Value of measured pKd for the entry CCNC(=O)[C@H](CC)[C@@H]1N=C(c2ccc(Cl)cc2)c2cc(OC)ccc2-n2c(C)nnc21 (relative stereo) : 6.02

* * *

- TESTED_TARGET: BRDT BD1 WT (Homo sapiens)
- TEST: competitive AlphaLISA
- Assay type: binding
MEASURED_PARAMETER: IC50 (µM)
Answers are plain numbers, in µM.

See these solved cases before continuing.
[[record]]
compound = "CC[C@@H](C(=O)OC(C)(C)C)[C@@H]1N=C(c2ccc(Cl)cc2)c2cc(OC)ccc2-n2c(C)nnc21"
value = 6.31

[[record]]
compound = "CC[C@@H](C(=O)N(CC)CC)[C@@H]1N=C(c2ccc(Cl)cc2)c2cc(OC)ccc2-n2c(C)nnc21 (relative stereo)"
value = 39.8


C=CC[C@@H](C(=O)OC(C)(C)C)[C@@H]1N=C(c2ccc(Cl)cc2)c2cc(OC)ccc2-n2c(C)nnc21 yielded IC50 of 7.94

* * *

Field: pKd. Provide a value for each of the molecules that follow.
- TESTED_TARGET: BRD2 BD2 L/V (Homo sapiens, UniProt P25440, L383V)
- Sequence (P25440 344-455 L383V): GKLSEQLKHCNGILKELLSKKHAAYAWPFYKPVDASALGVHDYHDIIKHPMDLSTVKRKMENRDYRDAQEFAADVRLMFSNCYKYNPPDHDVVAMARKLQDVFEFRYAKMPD
- TEST: ITC
- Assay type: binding
Answers are plain numbers, as −log10 of the molar value.

[[record]]
molecule = "CC[C@@H](C(=O)OC)[C@@H]1N=C(c2ccc(Cl)cc2)c2cc(OC)ccc2-n2c(C)nnc21 (relative stereo)"
measured_parameter = "pKd"
value = 7.30

[[record]]
molecule = "C=CC[C@@H](C(=O)OC)[C@@H]1N=C(c2ccc(Cl)cc2)c2cc(OC)ccc2-n2c(C)nnc21 (racemic)"
measured_parameter = "pKd"
value = 6.62

[[record]]
molecule = "COC(=O)[C@H](C)[C@@H]1N=C(c2ccc(Cl)cc2)c2ccc(OC)cc2-n2c(C)nnc21 [(2R,3S)-7]"
measured_parameter = "pKd"
value = 6.70

[[record]]
molecule = "CCNC(=O)[C@H](C)[C@@H]1N=C(c2ccc(Cl)cc2)c2ccc(OC)cc2-n2c(C)nnc21 (relative stereo)"
measured_parameter = "pKd"
value = 6.64

[[record]]
molecule = "CC[C@@H](C(=O)OC)[C@@H]1N=C(c2ccc(Cl)cc2)c2ccc(OC)cc2-n2c(C)nnc21 (racemic)"
measured_parameter = "pKd"
value = 6.52


Item COC(=O)[C@H](C)[C@@H]1N=C(c2ccc(Cl)cc2)c2ccc(OC)cc2-n2c(C)nnc21 (racemic) [Compound 7] was tested on BRD2 BD2 L/V (Homo sapiens, UniProt P25440, L383V); the reported pKd is 6.48

* * *

For each of the compounds below, state its pIC50.
- TESTED_TARGET: BRDT BD2 WT (Homo sapiens, UniProt Q58F21)
- TEST: competitive AlphaLISA
- Type: binding
One number for each entry, as −log10 of the molar value.

// solved cases for pIC50 follow
[[record]]
compound = "COC(=O)[C@H](C)[C@@H]1N=C(c2ccc(Cl)cc2)c2ccc(OC)cc2-n2c(C)nnc21 (racemic)"
tested_target = "BRDT BD2 WT (Homo sapiens, UniProt Q58F21)"
value = 5.10

[[record]]
compound = "C=CC[C@@H](C(=O)NCC)[C@@H]1N=C(c2ccc(Cl)cc2)c2cc(OC)ccc2-n2c(C)nnc21 (relative stereo)"
tested_target = "BRDT BD2 WT (Homo sapiens, UniProt Q58F21)"
value = 4.10

[[record]]
compound = "CCNC(=O)[C@H](C)[C@@H]1N=C(c2ccc(Cl)cc2)c2ccc(OC)cc2-n2c(C)nnc21 (relative stereo)"
tested_target = "BRDT BD2 WT (Homo sapiens, UniProt Q58F21)"
value = 4.60

[[record]]
compound = "CC[C@@H](C(=O)N(CC)CC)[C@@H]1N=C(c2ccc(Cl)cc2)c2cc(OC)ccc2-n2c(C)nnc21 (relative stereo)"
tested_target = "BRDT BD2 WT (Homo sapiens, UniProt Q58F21)"
value = 4.40

[[record]]
compound = "C=CC[C@@H](C(=O)OC(C)(C)C)[C@@H]1N=C(c2ccc(Cl)cc2)c2cc(OC)ccc2-n2c(C)nnc21"
tested_target = "BRDT BD2 WT (Homo sapiens, UniProt Q58F21)"
value = 5.00


Next, consider the following compound.
For the compound C=CC[C@@H](C(=O)OC(C)(C)C)[C@@H]1N=C(c2ccc(Cl)cc2)c2ccc(OC)cc2-n2c(C)nnc21 , the measured pIC50 on BRDT BD2 WT (Homo sapiens, UniProt Q58F21) was 5.00
